All values here come from ChEMBL document CHEMBL1126868.

ASSAY_COMMENT: % metabolized in monkey S-9 after 2 hours (10 ug/ml)
Type: ADME
CONDITIONS: simiiformes, monkey S-9 fraction; read-out: Activity
Please use met whenever metabolised at 2 h, 10 ug/ml is not below 40%, and not met whenever it is.

Challenge: Please check the record Cl.O=C(NCCCOc1ccc2[nH]c3nc(O)nc-3cc2c1)N1CCN(Cc2ccccc2)CC1 and state if its metabolised at 2 h, 10 ug/ml is at or above 40%.
Response given: met

Challenge: Please check the record Cl.O=S(=O)(CCCOc1ccc2[nH]c3nc(O)nc-3cc2c1)N1CCN(Cc2ccc(F)cc2)CC1 and state if its metabolised at 2 h, 10 ug/ml is at or above 40%.
Response given: not met

Challenge: Please check the record Cl.O=S(=O)(CCCOc1ccc2[nH]c3nc(O)nc-3cc2c1)C1CCN(Cc2ccccc2)CC1 and state if its metabolised at 2 h, 10 ug/ml is at or above 40%.
Response given: not met

Challenge: Please check the record Cl.O=S(=O)(CCCOc1ccc2[nH]c3nc(O)nc-3cc2c1)C1CCN(CC2CCCCC2)CC1 and state if its metabolised at 2 h, 10 ug/ml is at or above 40%.
Response given: not met

Challenge: Please check the record Cl.O=C(NCCCOc1ccc2[nH]c3nc(O)nc-3cc2c1)N1CCN(Cc2ccc(F)cc2)CC1 and state if its metabolised at 2 h, 10 ug/ml is at or above 40%.
Response given: met

Challenge: Please check the record Cl.O=C(NCCCOc1ccc2[nH]c3nc(O)nc-3cc2c1)N1CCN(CC2CCCCC2)CC1 and state if its metabolised at 2 h, 10 ug/ml is at or above 40%.
Response given: not met

Challenge: Please check the record Cl.O=S(=O)(CCCOc1ccc2[nH]c3nc(O)nc-3cc2c1)N1CCN(CC2CCCCC2)CC1 and state if its metabolised at 2 h, 10 ug/ml is at or above 40%.
Response given: met

Challenge: Please check the record CCC(CC)CN1CCN(C(=O)NCCCOc2ccc3[nH]c4nc(O)nc-4cc3c2)CC1.Cl and state if its metabolised at 2 h, 10 ug/ml is at or above 40%.
Response given: not met

Challenge: Please check the record Cl.O=S(=O)(CCCOc1ccc2[nH]c3nc(O)nc-3cc2c1)N1CCN(Cc2ccccc2)CC1 and state if its metabolised at 2 h, 10 ug/ml is at or above 40%.
Response given: not met

Challenge: Please check the record CCC(CC)CN1CCN(S(=O)(=O)CCCOc2ccc3[nH]c4nc(O)nc-4cc3c2)CC1.Cl and state if its metabolised at 2 h, 10 ug/ml is at or above 40%.
Response given: not met

Challenge: Please check the record CCC(CC)CN1CCC(S(=O)(=O)CCCOc2ccc3[nH]c4nc(O)nc-4cc3c2)CC1.Cl and state if its metabolised at 2 h, 10 ug/ml is at or above 40%.
Response given: not met

Challenge: Please check the record O=C(CCCOc1ccc2[nH]c3nc(O)nc-3cc2c1)N1CCN(CC2CCCCC2)CC1 and state if its metabolised at 2 h, 10 ug/ml is at or above 40%.
Response given: not met
